Data origin: PubChem BioAssay (NCI)

# Tested on: M14 melanoma
# testDescription: NCI tumour cell line growth inhibition, 48 h
propertyMeasured: TGI

[
  {
    "molecule": "O=C(Cc1nc2ccccc2s1)Nc1ccc(Cl)cc1",
    "result": "> 100 µM"
  },
  {
    "molecule": "O=c1[nH]cc(/C=N\\Nc2ccccc2)c(=O)[nH]1",
    "result": "> 100 µM"
  },
  {
    "molecule": "CCSC(SCC)c1cc2c(cc1Br)OCO2",
    "result": "56.2 µM"
  },
  {
    "molecule": "COC(=O)[C@H]1C(=O)[C@@]2(C)[C@H]([C@H](OC(=O)c3ccccc3)[C@]3(O)C[C@H](OC(=O)[C@H](O)[C@@H](NC(=O)c4ccc(F)cc4)c4ccccc4)C(C)=C1C3(C)C)[C@]1(OC(C)=O)CO[C@@H]1C[C@@H]2O",
    "result": "0.105 µM"
  },
  {
    "molecule": "Cc1c(-c2ccccc2)[nH]c2ccc(Cl)cc2c1=O",
    "result": "> 100 µM"
  },
  {
    "molecule": "CCCCCCCCCCCCNC(=O)[C@H]1CSC(c2cc3ccccc3s2)N1 (some centres undefined)",
    "result": "1.11 µM"
  },
  {
    "molecule": "Cc1ccc(S(=O)(=O)N2c3ccccc3[C@H]3CCc4c([nH]c5ccccc45)[C@H]32)cc1",
    "result": "> 100 µM"
  },
  {
    "molecule": "CC(C)(Br)C(Br)CCC(=CCBr)CBr (mixture of isomers)",
    "result": "4.29 µM"
  },
  {
    "molecule": "CC1CN(c2ccc(Cl)cc2)CC(C)(C)OC(=O)O1 (centres undefined)",
    "result": "> 100 µM"
  }
]
